# System: C33A
# measurement_protocol: Primary qHTS to identify gynecologic anti-cancer compounds using libraries of approved drugs and bioactive compounds (AID 1345084); also: nearly all actives have a fitted effect of over 55% in size
# conditions_used: Gynecologic cancer cell panel viability, ATPlite luminescence, 48 h; series mostly up to 57.5 µM
Results filed as inconclusive are left out. Activity calls are given as the source filed them. Calls follow the shape of the dose curve; as a rule, active = well fitted cell-killing curve with a large enough effect; inconclusive = small, poorly fitted or top-dose-only effect, or effect the other way; inactive = flat fitted curve, though single readings scatter.
Pick one: T = active, F = inactive

stdin: State the result this test recorded for CN1CCCCC1Cn1cc(C(=O)c2cc([N+](=O)[O-])ccc2I)c2ccccc21 (centres undefined) .
stdout: F

stdin: Each compound tested received a call. Report the one for `C#C[C@]1(O)CC[C@H]2[C@@H]3CC[C@H]4Cc5nc6nc7ccccc7n6cc5C[C@]4(C)[C@H]3CC[C@@]21C` .
stdout: F

stdin: Please indicate how the test categorized `c1ccc([C@@H]2C[C@H]2NC2CCNCC2)cc1` .
stdout: F

stdin: Please share the test call associated with CCC(C)(O)C1(C(=O)O)COC(=O)C1 (centres undefined) .
stdout: F

stdin: Which result was noted for this compound in the test: C/C=C(/C)C1C=CC2CC(C)CC(C)C2C1/C(O)=C1\C(=O)NC(CC(C)(O)C(=O)O)C1=O (centres undefined)
stdout: F

stdin: Called result for C=C[C@H]1CN2CCC1C[C@H]2[C@H](O)c1ccnc2ccccc12 (some centres undefined)
stdout: F

stdin: How was `C=CCN1CCC2(C)c3cc(O)ccc3C[C@H]1[C@H]2C` classified in this test?
stdout: F

stdin: Just curious, what result did C[C@]12CC[C@H](O[C@@H]3O[C@H](CO)[C@@H](O)[C@H](O)[C@H]3O)CC1CC[C@@H]1C2CC[C@]2(C)[C@@H](C3=CC(=O)OC3)CC[C@]12O (some centres undefined) get here?
stdout: T

stdin: Which outcome did this test record for the compound `O=C(NCCN1CCC2(CC1)C(=O)NCN2c1cccc(F)c1)c1ccc(F)c(F)c1` ?
stdout: F

###

# system_name: Ubiquitin carboxyl-terminal hydrolase 1 (Homo sapiens) (UniProt O94782)
# Sequence (O94782 whole entry, looked up): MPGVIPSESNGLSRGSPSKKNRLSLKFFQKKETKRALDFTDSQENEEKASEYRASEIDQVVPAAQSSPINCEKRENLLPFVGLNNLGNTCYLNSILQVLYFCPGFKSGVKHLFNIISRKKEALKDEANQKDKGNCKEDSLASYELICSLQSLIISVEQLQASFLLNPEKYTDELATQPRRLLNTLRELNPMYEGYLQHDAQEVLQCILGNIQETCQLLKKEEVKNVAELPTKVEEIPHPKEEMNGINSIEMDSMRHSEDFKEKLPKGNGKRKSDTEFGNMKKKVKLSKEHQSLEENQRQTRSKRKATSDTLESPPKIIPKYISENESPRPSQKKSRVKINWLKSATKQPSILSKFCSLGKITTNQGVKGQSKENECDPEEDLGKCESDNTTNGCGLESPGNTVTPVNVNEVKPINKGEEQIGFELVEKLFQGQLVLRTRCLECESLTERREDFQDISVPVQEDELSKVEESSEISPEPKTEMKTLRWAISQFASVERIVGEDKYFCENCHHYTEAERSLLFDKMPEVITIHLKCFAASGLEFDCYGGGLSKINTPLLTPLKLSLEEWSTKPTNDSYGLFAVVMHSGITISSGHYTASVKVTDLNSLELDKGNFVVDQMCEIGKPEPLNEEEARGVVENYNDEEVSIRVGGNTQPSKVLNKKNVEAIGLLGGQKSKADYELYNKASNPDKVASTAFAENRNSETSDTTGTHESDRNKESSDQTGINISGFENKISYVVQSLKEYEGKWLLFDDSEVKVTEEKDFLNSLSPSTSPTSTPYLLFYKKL
# measurement_protocol: Inhibitors of USP1/UAF1: Pilot qHTS (AID 504865); also: nearly all actives have a fitted effect of over 35% in size
# conditions_used: purified USP1/UAF1, Ub-rhodamine cleavage fluorescence; series mostly up to 114 µM
Inconclusive results are not listed. The source made the active and inactive calls. Calls follow the shape of the dose curve; as a rule, active = well fitted inhibition curve with a large enough effect; inconclusive = small, poorly fitted or top-dose-only effect; inactive = flat fitted curve, though single readings scatter.
Response enum: active, inactive

stdin: What is the recorded call for this molecule in the test? `c1cncc(C2=NCCC2)c1`
stdout: inactive

stdin: Fill in: this test's call for `Fc1ccc(C(OCCN2CCN(C/C=C\c3ccccc3)CC2)c2ccc(F)cc2)cc1` is ___
stdout: inactive

stdin: Record lookup: outcome of this test for `C[C@@H](Cc1ccc(OCC(=O)O)cc1)NC[C@H](O)c1cccc(Cl)c1` ?
stdout: inactive

stdin: What was the test verdict on `CN(C(=O)Cc1ccccc1)[C@H](CN1CCCC1)c1ccccc1` ?
stdout: inactive

stdin: // outcome(item) with item = `CC(=O)O[C@@H]1CN2CCC1CC2`
stdout: inactive

stdin: What classification did `c1ccc2c(c1)OC[C@@H](C1=NCCN1)O2` end up with in this test?
stdout: inactive

stdin: Which outcome was entered for the molecule `CC(C)(C)c1o[nH]c(=O)c1C[C@H](N)C(=O)O` in this test?
stdout: inactive

stdin: Hi, sorry to bother you, what did the test record for O=CN1CCCCC1C1CC[C@H]2CCCCN2C1 (stereo partly specified) ?
stdout: inactive

stdin: Please state the recorded outcome for this molecule: `O=C(O)[C@@H]1C[C@H]2C[C@@H](CP(=O)(O)O)CC[C@H]2CN1`
stdout: inactive

stdin: Answer briefly: the call reported for `O[C@@H](Cc1ccncc1)C(Cl)(Cl)Cl` in this assay.
stdout: inactive

stdin: Per the records of this test, what outcome belongs to `C[C@H](N)Cc1cnc[nH]1` ?
stdout: inactive

stdin: Which outcome was entered for the molecule `Clc1cncc(N2CCNCC2)n1` in this test?
stdout: inactive

stdin: Test call for this molecule, please: `O=c1oc(Cl)c(Cl)c2ccccc12`
stdout: active

stdin: Per the records of this test, what outcome belongs to NCC1OC(O[C@H]2[C@H](O)[C@@H](OC3C(O)C(N)CC(N)C3OC3OC(CO)C(O)C(O)C3N)O[C@@H]2CO)C(N)C(O)C1O (stereo partly specified) ?
stdout: inactive

stdin: Short answer needed: outcome of this test for `C=C(C)[C@H]1C2C(=O)O[C@H]1[C@H]1OC(=O)[C@@]34O[C@@H]3C[C@]2(O)[C@@]14C` ?
stdout: inactive

stdin: Please state the recorded outcome for this molecule: `CS(=O)(=O)Nc1ccc(Cc2noc(-c3ccc4[nH]cc(CCN)c4c3)n2)cc1`
stdout: inactive

stdin: Please state the recorded outcome for this molecule: `N[C@@]1(C(=O)O)CC[C@H](C(=O)O)C1`
stdout: inactive

stdin: Write down the call the test reported for this molecule. Item: `CCCN1C[C@H](C)N([C@H](c2ccc(C(=O)N(CC)CC)cc2)c2cccc(OC)c2)C[C@H]1C`
stdout: inactive

stdin: Identify the outcome logged in this assay for the molecule shown: `CCN(CC)/[N+]([O-])=N/O`
stdout: inactive

stdin: What was the test verdict on `O=C(/C=C\c1ccc(Cl)cc1)N[C@@]12CCC(=O)[C@@H]3Oc4c(O)ccc5c4[C@@]31CCN(CC1CC1)[C@@H]2C5` ?
stdout: inactive

stdin: Dear all, I need the recorded test outcome for `CN(C)Cc1c[nH]c2ccccc12` , thank you.
stdout: inactive

stdin: Dear colleague, could you share the recorded outcome for `O=C(O)/C=C\CO` when you have a moment?
stdout: inactive

stdin: What was the test verdict on `CCCN[C@@H]1CCc2c(OC)cccc2[C@@H]1C` ?
stdout: inactive

stdin: Dear colleague, could you share the recorded outcome for `Oc1cc[c]([Hg][Cl])cc1` when you have a moment?
stdout: active

stdin: Just curious, what result did `COc1ccn(C)c(=O)c1C#N` get here?
stdout: inactive

stdin: Give the logged outcome of this assay for the following molecule: `C=CCN1C[C@H](C)N([C@H](c2ccc(C(=O)N(CC)CC)cc2)c2cccc(O)c2)C[C@H]1C`
stdout: inactive

stdin: Just curious, what result did `CN1CC[C@@H]2CN3CCc4cccc(c43)[C@H]2C1` get here?
stdout: inactive

stdin: GET /call?item= `C1CCc2nnnn2CC1` returns the recorded outcome of this test.
stdout: inactive

stdin: For this molecule, state the assay outcome: `COc1ccc(CNC(=O)/C=C\c2ccc3[nH]cc(CCN(C)C)c3c2)cc1`
stdout: inactive

stdin: Per the records of this test, what outcome belongs to `O[C@H]1CCCC[C@H]1N1CCC(c2ccccc2)CC1` ?
stdout: inactive

stdin: How was CCC1CN2CCC1CC2C(O)c1ccnc2ccccc12 (stereo unspecified) classified in this test?
stdout: inactive

stdin: Dear all, I need the recorded test outcome for `C[C@@H]1O[C@H](O[C@@H]2C[C@@H](O)[C@]3(CO)[C@H]4[C@H](O)C[C@]5(C)[C@@H](C6=CC(=O)OC6)CC[C@@]5(O)[C@@H]4CC[C@]3(O)C2)[C@@H](O)[C@H](O)[C@H]1O` , thank you.
stdout: inactive

stdin: How was `CC(=O)C1=C(O)[C@@H]2[C@@H]3c4c[nH]c5cccc(c45)C[C@@H]3C(C)(C)N2C1=O` classified in this test?
stdout: inactive

stdin: // return assay outcome for `C[C@]12N[C@@H](Cc3ccccc31)c1ccccc12`
stdout: inactive

stdin: Recorded test call requested for `C=CCSSCC=C`
stdout: inactive

stdin: Hello, I am checking results. What call was entered for `CN[C@@H](Cc1c[nH]c2ccccc12)C(=O)O` ?
stdout: inactive

stdin: Hi, sorry to bother you, what did the test record for `Cn1cc(C(=O)C(=O)N[C@H]2CN3CCC2CC3)c2ccccc21` ?
stdout: inactive

stdin: Which outcome was assigned to `C=C(C)[C@H]1CN[C@H](C(=O)O)[C@@H]1CC(=O)O` in this test?
stdout: inactive

stdin: # fetch the recorded call for `CC(C)n1cnc2c(C(=O)N[C@H]3CN4CCC3CC4)cc(Cl)cc21` here
stdout: inactive

stdin: Hello, I am checking results. What call was entered for `Clc1ccc([C@@H]2C[C@H]3CC[C@@H]2N3)cn1` ?
stdout: inactive

stdin: Please share the test call associated with `N.N.N.N.N.N.N.N.N.N.N.N.N.N.O.O.[Ru+4].[Ru+5].[Ru+5]` .
stdout: active

stdin: Outcome logged for `C=CCN1C[C@H](C)N([C@@H](c2ccccc2)c2ccc(C(=O)N(CC)CC)cc2)C[C@H]1C` in this assay:
stdout: inactive

stdin: What classification did `c1ccc([C@H]2CNCc3ccccc32)cc1` end up with in this test?
stdout: inactive

stdin: Answer briefly: the call reported for `O[C@@H]1[C@H](O)[C@H]2[C@@H](O)CCN2C[C@@H]1O` in this assay.
stdout: inactive

stdin: Just curious, what result did `CC(C)NC[C@H](O)c1ccc(N)c(C#N)c1` get here?
stdout: inactive

stdin: // return assay outcome for `CNCCc1cnc[nH]1`
stdout: inactive
